molecular target: Human complement C1s enzyme (Homo sapiens, UniProt P09871); test: Human C1s enzyme assay; type: biochemical; settings: human complement C1s enzyme 1.16 nM, substrate Z-L-Lys-SBzl 100 μM, 5 min preincubation; read-out: IC50 (Stars), C1s Inhibiting Activity
Hi there, I'd appreciate the recorded IC50 for every entry that follows.

Solved cases below.
COMPOUND	MEASUREMENT TARGET	REPORTED METRIC	EXPERIMENTAL VALUE
O=C(NCC(=O)N1CC2(C[C@H]1C(=O)NCc1cc3cnccc3[nH]1)OCCO2)c1ccc(Oc2ccc(Cl)c(Cl)c2)o1 [Compound 287]	Human complement C1s enzyme (Homo sapiens, UniProt P09871)	IC50	< 100 nM
COC[C@@]1(F)C[C@@H](C(=O)NCc2cc3cnccc3[nH]2)N(C(=O)CNC(=O)c2ccc3c(c2)-c2ccccc2C3(F)F)C1 [Compound 5]	Human complement C1s enzyme (Homo sapiens, UniProt P09871)	IC50	< 100 nM
O=C(NCC(=O)N1CC2(C[C@H]1C(=O)NCc1cc3cnccc3[nH]1)OCCO2)c1ccc2c(c1)Sc1ccccc1O2 [Compound 24]	Human complement C1s enzyme (Homo sapiens, UniProt P09871)	IC50	< 100 nM
Cc1cccc2c1oc1ccc(C(=O)NCC(=O)N3CCC[C@H]3C(=O)NCc3cc4cnccc4[nH]3)cc12 [Compound 336]	Human complement C1s enzyme (Homo sapiens, UniProt P09871)	IC50	< 100 nM
O=C(NCC(=O)N1CC[C@@H](O)[C@H]1C(=O)NCc1cc2cnccc2[nH]1)c1ccc2c(c1)Oc1ccccc1S2 [Compound 158]	Human complement C1s enzyme (Homo sapiens, UniProt P09871)	IC50	< 100 nM
O=C(NCC(=O)N1C[C@H](OC(F)F)C[C@H]1C(=O)NCc1cc2cnccc2[nH]1)c1cccc(Oc2ccc(C3CC3)cc2)c1 [Compound 294]	Human complement C1s enzyme (Homo sapiens, UniProt P09871)	IC50	< 100 nM
C[C@@H](NC(=O)[C@@H]1C[C@@H](OC(F)F)CN1C(=O)CN1Cc2cc(-c3ccc(F)cc3F)ccc2C1=O)c1cc2cnccc2[nH]1 [Compound 91]	Human complement C1s enzyme (Homo sapiens, UniProt P09871)	IC50	< 100 nM
O=C(NCC(=O)N1C[C@H](OC(F)F)C[C@H]1C(=O)NCc1cnc2[nH]ccc2c1)c1ccc2c(c1)Oc1ccccc1S2 [Compound 247]	Human complement C1s enzyme (Homo sapiens, UniProt P09871)	IC50	100 to 1000 nM
C[C@@H](NC(=O)[C@@H]1C[C@](F)(CO)CN1C(=O)CNC(=O)c1ccc2c(c1)Oc1ccccc1S2)c1cc2cnccc2[nH]1 [Compound 148]	Human complement C1s enzyme (Homo sapiens, UniProt P09871)	IC50	< 100 nM
C[C@@]12C[C@@H]1N(C(=O)CNC(=O)c1cccc(Oc3ccc(F)cc3)c1)[C@H](C(=O)NCc1cc3cnccn3c1)C2 [Compound 269]	Human complement C1s enzyme (Homo sapiens, UniProt P09871)	IC50	< 100 nM

Go through the list and state IC50 for each entry.
1. C[C@@H](NC(=O)[C@@H]1CC2(CN1C(=O)CNC(=O)c1ccc(-c3ccc(F)cc3F)cc1)OCCO2)c1cc2cnccc2[nH]1 [Compound 68]
2. O=C(NCC(=O)N1C[C@H](OC(F)F)C[C@H]1C(=O)NCc1ccc2c(c1)CCNC2)c1ccc2c(c1)Oc1ccccc1S2 [Compound 223]
3. O=C(NCC(=O)N1C[C@H](OC(F)F)C[C@H]1C(=O)NCc1cc2cnccc2s1)c1cccc(Oc2ccccc2)c1 [Compound 235]
4. O=C(NCC(=O)N1C[C@H](OC(F)F)C[C@H]1C(=O)NCc1ccc2nc[nH]c2c1)c1ccc2c(c1)Oc1ccccc1S2 [Compound 193]
5. Cc1ccc(Nc2cccc(C(=O)NCC(=O)N3C[C@H](OC(F)F)C[C@H]3C(=O)NCc3cc4cnccc4[nH]3)c2)c(F)c1 [Compound 324]
6. COC[C@@]1(F)C[C@@H](C(=O)N[C@H](C)c2cc3cnccc3[nH]2)N(C(=O)CNC(=O)c2ccc(-c3ccccc3)cc2)C1 [Compound 83]
7. O=C(NCC(=O)N1CC2(C[C@H]1C(=O)NCc1cc3cncc(F)c3[nH]1)OCCO2)c1ccc2c(c1)Oc1ccccc1S2 [Compound 45]
8. C[C@@]12C[C@@H]1N(C(=O)CNC(=O)c1ccc3c(c1)Oc1ccccc1S3)[C@H](C(=O)NCc1cc3cnccc3[nH]1)C2 [Compound 44]

Key:
["100 to 1000 nM", "100 to 1000 nM", "< 100 nM", "> 1000 nM", "< 100 nM", "100 to 1000 nM", "> 1000 nM", "< 100 nM"]

---

I'd be grateful if you could share measured IC50 for these entries.
biological target: Human complement C1s enzyme (Homo sapiens, UniProt P09871); assay: Human C1s enzyme assay; assay type: biochemical; settings: human complement C1s enzyme 1.16 nM, substrate Z-L-Lys-SBzl 100 μM, 5 min preincubation; read-out: IC50 (Stars), C1s Inhibiting Activity

Examples with their reported IC50 follow.
COMPOUND	MEASUREMENT TARGET	EXPERIMENTAL VALUE
O=C(NCC(=O)N1C[C@H](OC(F)F)C[C@H]1C(=O)NCc1cc2cnccn2c1)c1cccc(Oc2ccc(F)cc2)c1 [Compound 278]	Human complement C1s enzyme (Homo sapiens, UniProt P09871)	< 0.1 µM
O=C(NCC(=O)N1C[C@H](OC(F)F)C[C@H]1C(=O)NCc1cc2cnccc2[nH]1)c1cccc(Oc2ccccc2F)c1 [Compound 299]	Human complement C1s enzyme (Homo sapiens, UniProt P09871)	< 0.1 µM
C[C@@H](NC(=O)[C@@H]1C[C@@H](OC(F)F)CN1C(=O)CN1Cc2cc(Br)ccc2C1=O)c1cc2cnccc2[nH]1 [Compound 100]	Human complement C1s enzyme (Homo sapiens, UniProt P09871)	0.1 to 1 µM
O=C(NCC(=O)N1C[C@H](OC(F)F)C[C@H]1C(=O)NCc1cnc2c(c1)CNC2)c1ccc2c(c1)Oc1ccccc1S2 [Compound 253]	Human complement C1s enzyme (Homo sapiens, UniProt P09871)	0.1 to 1 µM

Please state, for each entry, its recorded IC50.
1. C[C@@H](NC(=O)[C@@H]1CC2(CN1C(=O)CNC(=O)c1ccc(-c3ccccc3)cn1)OCCO2)c1cc2cnccc2[nH]1 [Compound 114]
2. O=C(NCC(=O)N1CC2(C[C@H]1C(=O)NCc1cc3ccccc3[nH]1)OCCO2)c1ccc2c(c1)Oc1ccccc1S2 [Compound 29]

Key:
0.1 to 1 µM
> 1 µM

---

Biological target: Human complement C1s enzyme (Homo sapiens, UniProt P09871)
Sequence (P09871 438-688 limits assumed): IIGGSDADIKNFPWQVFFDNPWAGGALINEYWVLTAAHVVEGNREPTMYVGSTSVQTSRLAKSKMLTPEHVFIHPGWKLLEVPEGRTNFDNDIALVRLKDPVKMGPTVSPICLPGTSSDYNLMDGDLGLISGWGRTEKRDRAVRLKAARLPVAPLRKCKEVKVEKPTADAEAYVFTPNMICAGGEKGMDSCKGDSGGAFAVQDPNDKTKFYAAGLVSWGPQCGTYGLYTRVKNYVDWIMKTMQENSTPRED
Sequence (P09871 16-437 partner limits assumed): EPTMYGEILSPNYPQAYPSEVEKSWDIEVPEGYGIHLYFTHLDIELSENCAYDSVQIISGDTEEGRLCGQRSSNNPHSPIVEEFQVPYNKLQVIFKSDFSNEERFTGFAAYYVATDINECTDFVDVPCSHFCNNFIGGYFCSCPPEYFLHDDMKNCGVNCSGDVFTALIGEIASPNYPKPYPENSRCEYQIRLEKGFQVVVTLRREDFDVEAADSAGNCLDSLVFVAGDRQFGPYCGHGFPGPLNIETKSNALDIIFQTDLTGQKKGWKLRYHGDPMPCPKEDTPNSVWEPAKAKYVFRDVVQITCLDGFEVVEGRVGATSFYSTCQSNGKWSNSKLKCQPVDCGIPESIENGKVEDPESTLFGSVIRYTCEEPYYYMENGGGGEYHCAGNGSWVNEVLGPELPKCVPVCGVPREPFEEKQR
Experiment: Human C1s enzyme assay
Assay type: biochemical
Settings: human complement C1s enzyme 1.16 nM, substrate Z-L-Lys-SBzl 100 μM, 5 min preincubation; read-out: IC50 (Stars), C1s Inhibiting Activity
pIC50: −log10 of the molar value.
I'd be grateful if you could share measured pIC50 for these entries.

Study these solved cases before continuing.
COMPOUND	pIC50
C[C@@H](NC(=O)[C@@H]1CC2(CN1C(=O)CNC(=O)c1cccc(Oc3ccc(F)cc3)c1)OCCO2)c1cc2cnccc2[nH]1 [Compound 240]	> 7.00
CCc1ccc(Oc2cccc(C(=O)NCC(=O)N3C[C@H](OC(F)F)C[C@H]3C(=O)NCc3cc4cnccc4[nH]3)c2)s1 [Compound 368]	> 7.00
O=C(NCC(=O)N1CC2(C[C@H]1C(=O)NCc1nc3cnccc3[nH]1)OCCO2)c1ccc2c(c1)Oc1ccccc1S2 [Compound 49]	< 6.00
O=C(NCC(=O)N1CC2(C[C@H]1C(=O)NCc1cc3cnccc3s1)OCCO2)c1ccc2c(c1)Oc1ccccc1S2 [Compound 54]	> 7.00
C[C@@H](NC(=O)[C@@H]1CC(Cn2ccnc2)CN1C(=O)CNC(=O)c1ccc2c(c1)Oc1ccccc1S2)c1cc2cnccc2[nH]1 (stereo partly drawn) [Compound 184]	> 7.00

Now examine the next entry.
Recorded pIC50 (compound C[C@H]1C[C@@H](C(=O)N[C@H](C)c2cc3cnccc3[nH]2)N(C(=O)CNC(=O)c2ccc3c(c2)Oc2ccccc2S3)C1 [Compound 165] ): > 7.00
